System: S. aureus Newman
run-description: Bliss interaction score (quartile over a dose matrix) (fitness difference); higher = more antagonism (negative = synergy)
property-measured: Bliss interaction score
Give bare numbers.

Supply Bliss interaction score value. Item: CC1(C)S[C@@H]2[C@H](NC(=O)[C@H](N)c3ccc(O)cc3)C(=O)N2[C@H]1C(=O)O [Amoxicillin] + CC[C@H]1OC(=O)[C@H](C)[C@@H](O[C@H]2C[C@@](C)(OC)[C@@H](O)[C@H](C)O2)[C@H](C)[C@@H](O[C@@H]2O[C@H](C)C[C@H](N(C)C)[C@H]2O)[C@](C)(O)C[C@@H](C)C(=O)[C@H](C)[C@@H](O)[C@]1(C)O [Erythromycin]
-0.0553

Please find the next molecule below.
Hello, please tell me recorded Bliss interaction score for this one: CC1(C)S[C@@H]2[C@H](NC(=O)[C@H](N)c3ccc(O)cc3)C(=O)N2[C@H]1C(=O)O [Amoxicillin] + Cc1ncc([N+](=O)[O-])n1CCO [Metronidazole]
0.0677

###

System: S. aureus DSM 20231
run-description: fitness (endpoint OD595 vs no drug) (fraction); higher = more growth
protocol-conditions: first compound 0.125 µg/mL; partner 2.5 µg/mL
property-measured: fitness

Past entries and their recorded results:
Respond only with fitness recorded for CC1(C)S[C@@H]2[C@H](NC(=O)[C@H](N)c3ccc(O)cc3)C(=O)N2[C@H]1C(=O)O [Amoxicillin] + COc1cccc2c1C(=O)c1c(O)c3c(c(O)c1C2=O)C[C@@](O)(C(=O)CO)C[C@@H]3O[C@H]1C[C@H](N)[C@H](O)[C@H](C)O1 [Doxorubicin]
0.461

// fetch fitness given entry CCCCCCCCCC(=O)N[C@@H](Cc1c[nH]c2ccccc12)C(=O)N[C@H](CC(N)=O)C(=O)N[C@@H](CC(=O)O)C(=O)N[C@@H]1C(=O)NCC(=O)N[C@@H](CCCN)C(=O)N[C@@H](CC(=O)O)C(=O)N[C@H](C)C(=O)N[C@@H](CC(=O)O)C(=O)NCC(=O)N[C@H](CO)C(=O)N[C@@H]([C@H](C)CC(=O)O)C(=O)N[C@@H](CC(=O)c2ccccc2N)C(=O)O[C@@H]1C [Daptomycin] + Cc1ncc([N+](=O)[O-])n1CCO [Metronidazole]
0.983

Check the records and state fitness for CO/N=C(\C(=O)N[C@@H]1C(=O)N2C(C(=O)[O-])=C(C[N+]3(C)CCCC3)CS[C@H]12)c1csc(N)n1 [Cefepime] + C[n+]1ccc(-c2cc[n+](C)cc2)cc1 [Paraquat]
0.888

Supply measured fitness of CCCCCCCCCC(=O)N[C@@H](Cc1c[nH]c2ccccc12)C(=O)N[C@H](CC(N)=O)C(=O)N[C@@H](CC(=O)O)C(=O)N[C@@H]1C(=O)NCC(=O)N[C@@H](CCCN)C(=O)N[C@@H](CC(=O)O)C(=O)N[C@H](C)C(=O)N[C@@H](CC(=O)O)C(=O)NCC(=O)N[C@H](CO)C(=O)N[C@@H]([C@H](C)CC(=O)O)C(=O)N[C@@H](CC(=O)c2ccccc2N)C(=O)O[C@@H]1C [Daptomycin] + C[n+]1ccc(-c2cc[n+](C)cc2)cc1 [Paraquat] in your reply.
0.898

Supply reported fitness belonging to this compound: CC1(C)S[C@@H]2[C@H](NC(=O)[C@H](N)c3ccc(O)cc3)C(=O)N2[C@H]1C(=O)O [Amoxicillin] + C[n+]1ccc(-c2cc[n+](C)cc2)cc1 [Paraquat]
0.498

Please give measured fitness of the following entry: CO/N=C(\C(=O)N[C@@H]1C(=O)N2C(C(=O)[O-])=C(C[N+]3(C)CCCC3)CS[C@H]12)c1csc(N)n1 [Cefepime] + CN1C2=CC=CC=C2N=C3C1=CC=CC3=O [Pyocyanin]
0.846

Now look at this entry.
Return fitness for the following compound: CC1(C)S[C@@H]2[C@H](NC(=O)[C@H](N)c3ccc(O)cc3)C(=O)N2[C@H]1C(=O)O [Amoxicillin] + CN1C2=CC=CC=C2N=C3C1=CC=CC3=O [Pyocyanin]
0.417

###

Tested on: S. aureus Newman
run-description: Bliss interaction score (quartile over a dose matrix) (fitness difference); higher = more antagonism (negative = synergy)
property-measured: Bliss interaction score

Solved cases below.
For the compound CCN(CC)CCOC(=O)c1ccc(N)cc1 [Procaine] + Cc1cc(NS(=O)(=O)c2ccc(N)cc2)no1 [Sulfamethoxazol] , give its measured Bliss interaction score value.
0.0323

Report Bliss interaction score, nothing else, for this compound: C[C@H]1COc2c(N3CCN(C)CC3)c(F)cc3c(=O)c(C(=O)O)cn1c23 [Levofloxacin] + Cc1cc(NS(=O)(=O)c2ccc(N)cc2)no1 [Sulfamethoxazol]
0.0779

Name the recorded Bliss interaction score of the item C[C@H]1COc2c(N3CCN(C)CC3)c(F)cc3c(=O)c(C(=O)O)cn1c23 [Levofloxacin] + Cn1nnc(-c2ccc(-c3ccc(N4C[C@H](CO)OC4=O)cc3F)cn2)n1 [Tedizolid] in your answer.
0.057

Tell us which Bliss interaction score value is on record for C[C@H]1COc2c(N3CCN(C)CC3)c(F)cc3c(=O)c(C(=O)O)cn1c23 [Levofloxacin] + CCC[C@@H]1C[C@@H](C(=O)N[C@@H]([C@H]2O[C@H](SC)[C@H](O)[C@@H](O)[C@H]2O)[C@@H](C)O)N(C)C1 [Lincomycin]
0.0423

Given the compound CO/N=C(\C(=O)N[C@@H]1C(=O)N2C(C(=O)[O-])=C(C[N+]3(C)CCCC3)CS[C@H]12)c1csc(N)n1 [Cefepime] + CN(N=O)C(=O)N[C@@H](C=O)[C@@H](O)[C@H](O)[C@H](O)CO [Streptozotocin] , write its reported Bliss interaction score.
0.0304

I need Bliss interaction score for every entry listed below, if you could help.
1. CC1(C)S[C@@H]2[C@H](NC(=O)[C@H](N)c3ccc(O)cc3)C(=O)N2[C@H]1C(=O)O [Amoxicillin] + Oc1cc(Cl)ccc1Oc1ccc(Cl)cc1Cl [Triclosan]
2. CO/N=C(\C(=O)N[C@@H]1C(=O)N2C(C(=O)[O-])=C(C[N+]3(C)CCCC3)CS[C@H]12)c1csc(N)n1 [Cefepime] + CO[C@@]12[C@H](COC(N)=O)C3=C(C(=O)C(C)=C(N)C3=O)N1C[C@@H]1N[C@@H]12 [MitomycinC]
3. CN(C)C(=O)C(CCN1CCC(O)(c2ccc(Cl)cc2)CC1)(c1ccccc1)c1ccccc1 [Loperamide] + Cc1onc(-c2ccccc2)c1C(=O)N[C@@H]1C(=O)N2[C@@H]1SC(C)(C)[C@@H]2C(=O)O [Oxacillin]
4. CO/N=C(\C(=O)N[C@@H]1C(=O)N2C(C(=O)[O-])=C(C[N+]3(C)CCCC3)CS[C@H]12)c1csc(N)n1 [Cefepime] + CC1=C(C(=O)O)N2C(=O)[C@@H](NC(=O)[C@H](N)c3ccccc3)[C@H]2SC1 [Cephalexin]

0.0346
0.0543
0.077
-0.0529

###

Tested on: S. aureus Newman
run-description: fitness (endpoint OD595 vs no drug) (fraction); higher = more growth
protocol-conditions: first compound 0.125 µg/mL; partner 2.5 µg/mL
Answer each item with its documented fitness.
Answers are plain numbers.

For every listed record, write down its fitness.
1. CO/N=C(\C(=O)N[C@@H]1C(=O)N2C(C(=O)[O-])=C(C[N+]3(C)CCCC3)CS[C@H]12)c1csc(N)n1 [Cefepime] + C[n+]1ccc(-c2cc[n+](C)cc2)cc1
2. CC1(C)S[C@@H]2[C@H](NC(=O)[C@H](N)c3ccc(O)cc3)C(=O)N2[C@H]1C(=O)O [Amoxicillin] + Cc1ncc([N+](=O)[O-])n1CCO [Metronidazole]
3. CC1(C)S[C@@H]2[C@H](NC(=O)[C@H](N)c3ccc(O)cc3)C(=O)N2[C@H]1C(=O)O [Amoxicillin] + CO/N=C(\C(=O)N[C@@H]1C(=O)N2C(C(=O)O)=C(COC(C)=O)CS[C@H]12)c1csc(N)n1 [Cefotaxime]

1: 0.916; 2: 0.836; 3: 0.0311

###

System: S. aureus Newman
run-description: Bliss interaction score (quartile over a dose matrix) (fitness difference); higher = more antagonism (negative = synergy)
property-measured: Bliss interaction score
One number for each entry.

Worked examples follow.
Specify Bliss interaction score for CC1(C)S[C@@H]2[C@H](NC(=O)[C@H](N)c3ccc(O)cc3)C(=O)N2[C@H]1C(=O)O [Amoxicillin] + COc1cccc2c1C(=O)c1c(O)c3c(c(O)c1C2=O)C[C@@](O)(C(=O)CO)C[C@@H]3O[C@H]1C[C@H](N)[C@H](O)[C@H](C)O1 [Doxorubicin] and stop.
-0.0449

Determine from records and report Bliss interaction score for CCN(CC)CCOC(=O)c1ccc(N)cc1 [Procaine] + CC[C@H]1OC(=O)[C@H](C)C(=O)[C@H](C)[C@@H](O[C@@H]2O[C@H](C)C[C@H](N(C)C)[C@H]2O)[C@](C)(OC)C[C@@H](C)C(=O)[C@H](C)[C@H]2N(CCCCn3cnc(-c4cccnc4)c3)C(=O)O[C@]12C [Telithromycin]
0.0289

Query Bliss interaction score for CO/N=C(\C(=O)N[C@@H]1C(=O)N2C(C(=O)[O-])=C(C[N+]3(C)CCCC3)CS[C@H]12)c1csc(N)n1 [Cefepime] + O=C(O)c1cn(C2CC2)c2cc(N3CCNCC3)c(F)cc2c1=O [Ciprofloxacin]
0.0601

// next entry
Could you please provide reported Bliss interaction score for CC1(C)S[C@@H]2[C@H](NC(=O)[C@H](N)c3ccc(O)cc3)C(=O)N2[C@H]1C(=O)O [Amoxicillin] + CC1(C)S[C@@H]2[C@H](NC(=O)Cc3ccccc3)C(=O)N2[C@H]1C(=O)O [PenicillinG] ? Thanks!
0.0595
